# subjectOfTest: SERT (Rattus norvegicus, UniProt P31652)
# Sequence (P31652 whole entry): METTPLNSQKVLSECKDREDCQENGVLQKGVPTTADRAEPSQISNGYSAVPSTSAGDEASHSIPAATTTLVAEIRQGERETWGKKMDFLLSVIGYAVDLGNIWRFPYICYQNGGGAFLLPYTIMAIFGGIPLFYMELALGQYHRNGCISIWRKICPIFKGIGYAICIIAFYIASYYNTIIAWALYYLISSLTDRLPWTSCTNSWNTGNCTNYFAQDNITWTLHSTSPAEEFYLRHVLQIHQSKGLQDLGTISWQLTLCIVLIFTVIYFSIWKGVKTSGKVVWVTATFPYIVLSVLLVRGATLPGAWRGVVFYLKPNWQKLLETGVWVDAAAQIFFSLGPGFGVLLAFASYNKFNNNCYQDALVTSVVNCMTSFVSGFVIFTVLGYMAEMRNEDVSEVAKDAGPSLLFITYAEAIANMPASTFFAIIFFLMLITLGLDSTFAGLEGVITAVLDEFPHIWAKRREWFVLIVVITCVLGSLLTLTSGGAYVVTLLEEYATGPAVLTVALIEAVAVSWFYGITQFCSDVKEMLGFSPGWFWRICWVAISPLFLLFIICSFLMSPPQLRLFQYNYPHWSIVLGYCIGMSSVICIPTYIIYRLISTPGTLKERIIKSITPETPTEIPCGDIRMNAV
# measurementNotes: 3H-5-HT uptake assay in rat brain synaptosomal preparations

[
  {
    "smiles": "Fc1cc(F)c(OCc2ccccc2C2CCNCC2)c(F)c1",
    "unitOfMeasure": "nM",
    "IC50": 12.6
  }
]

###

# subjectOfTest: hNET (Homo sapiens, UniProt P23975)
# Sequence (P23975 whole entry): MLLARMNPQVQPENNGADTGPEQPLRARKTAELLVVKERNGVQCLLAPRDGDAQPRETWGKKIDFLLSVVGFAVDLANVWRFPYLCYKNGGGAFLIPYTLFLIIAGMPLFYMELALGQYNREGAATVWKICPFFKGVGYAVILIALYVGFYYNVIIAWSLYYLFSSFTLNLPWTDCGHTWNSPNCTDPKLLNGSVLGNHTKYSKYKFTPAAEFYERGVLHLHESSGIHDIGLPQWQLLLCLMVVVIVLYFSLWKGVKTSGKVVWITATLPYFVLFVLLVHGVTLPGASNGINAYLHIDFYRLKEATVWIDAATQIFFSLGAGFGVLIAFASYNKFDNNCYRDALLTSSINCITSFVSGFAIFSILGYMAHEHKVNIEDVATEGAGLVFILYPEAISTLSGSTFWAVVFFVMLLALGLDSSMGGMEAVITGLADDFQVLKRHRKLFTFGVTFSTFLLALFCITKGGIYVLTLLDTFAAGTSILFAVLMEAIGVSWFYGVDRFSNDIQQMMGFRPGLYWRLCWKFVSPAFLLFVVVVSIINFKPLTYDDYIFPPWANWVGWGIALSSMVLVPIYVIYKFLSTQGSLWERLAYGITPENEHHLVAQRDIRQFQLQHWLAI
# measurementNotes: 3H-NE neurotransmitter uptake assay in HEK-293 cells expressing hNET
readoutKind: IC50 (nM)

[
  {
    "smiles": "Fc1cc(F)c(OCc2ccccc2C2CCNCC2)c(F)c1",
    "unitOfMeasure": "nM",
    "number": 2.51
  }
]

###

# subjectOfTest: hSERT (Homo sapiens)
# Sequence (P31645 whole entry): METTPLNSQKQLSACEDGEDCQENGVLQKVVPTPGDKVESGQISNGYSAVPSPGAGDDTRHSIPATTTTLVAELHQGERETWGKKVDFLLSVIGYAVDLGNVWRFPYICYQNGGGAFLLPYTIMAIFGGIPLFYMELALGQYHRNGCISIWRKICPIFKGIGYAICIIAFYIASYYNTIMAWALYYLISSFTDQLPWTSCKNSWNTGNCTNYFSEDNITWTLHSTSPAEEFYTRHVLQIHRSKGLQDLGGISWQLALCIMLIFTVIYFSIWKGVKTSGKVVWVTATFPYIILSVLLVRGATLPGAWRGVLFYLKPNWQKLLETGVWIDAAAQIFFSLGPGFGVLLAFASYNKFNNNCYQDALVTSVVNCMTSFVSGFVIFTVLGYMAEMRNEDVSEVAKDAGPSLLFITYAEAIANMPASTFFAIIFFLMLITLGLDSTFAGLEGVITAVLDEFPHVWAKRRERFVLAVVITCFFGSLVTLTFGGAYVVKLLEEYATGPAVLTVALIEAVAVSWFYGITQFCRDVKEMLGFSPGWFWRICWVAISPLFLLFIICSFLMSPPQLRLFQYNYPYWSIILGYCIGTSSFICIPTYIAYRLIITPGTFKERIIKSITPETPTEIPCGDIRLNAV
# measurementNotes: 3H-5-HT neurotransmitter uptake assay in HEK-293 cells expressing hSERT

[
  {
    "molecule": "Fc1cc(F)c(OCc2ccccc2C2CCNCC2)c(F)c1 [Compound 1]",
    "IC50 / nM": 10
  }
]
